- assay-target: DAT (Rattus norvegicus, UniProt P23977)
- Sequence (P23977 whole entry): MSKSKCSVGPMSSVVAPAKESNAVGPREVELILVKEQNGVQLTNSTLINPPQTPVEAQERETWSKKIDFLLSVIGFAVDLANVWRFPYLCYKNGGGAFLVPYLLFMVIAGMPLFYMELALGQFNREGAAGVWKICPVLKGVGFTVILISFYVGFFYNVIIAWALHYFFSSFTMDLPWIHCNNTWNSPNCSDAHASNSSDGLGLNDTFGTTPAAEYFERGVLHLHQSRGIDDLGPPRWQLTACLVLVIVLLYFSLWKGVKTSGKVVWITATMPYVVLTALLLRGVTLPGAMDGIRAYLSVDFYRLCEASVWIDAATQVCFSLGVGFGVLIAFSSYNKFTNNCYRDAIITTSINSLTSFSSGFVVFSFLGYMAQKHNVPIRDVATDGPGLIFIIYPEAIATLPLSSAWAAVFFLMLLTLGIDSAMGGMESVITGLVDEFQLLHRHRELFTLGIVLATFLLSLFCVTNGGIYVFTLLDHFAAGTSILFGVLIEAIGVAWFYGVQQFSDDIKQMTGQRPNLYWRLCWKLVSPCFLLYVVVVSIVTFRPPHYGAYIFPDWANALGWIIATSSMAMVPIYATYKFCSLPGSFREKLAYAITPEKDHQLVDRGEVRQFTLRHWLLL
- procedure-details: DA release assay (synaptosomes, [3H]MPP+)
- Assay type: biochemical
- Parameters: the supernatants were retained on ice (synaptosomal preparation); from tissue; host or cells: rat caudate synaptosomes
- condition-details: Table 5

| mol-smiles | endpoint-unit | DA Rel (%) |
| --- | --- | --- |
| C[C@H]1CO[C@@H](c2ccc(F)cc2)CN1 | % | 65 |
| C[C@H]1CO[C@@H](c2cccc(C(F)(F)F)c2)CN1 | % | 45 |
| C[C@H]1CO[C@@H](c2ccc(C(F)(F)F)cc2)CN1 | % | 15 |
| COc1cccc([C@H]2CN[C@@H](C)CO2)c1 | % | 56 |
| Cc1cccc([C@H]2CN[C@@H](C)CO2)c1 | % | 86 |
| C[C@H]1CO[C@@H](c2cccc(F)c2)CN1 | % | 96 |

###

- assay-target: DAT (Rattus norvegicus)
- procedure-details: DA release assay (synaptosomes, [3H]MPP+)
- Assay type: biochemical
- Parameters: the supernatants were retained on ice (synaptosomal preparation); from tissue; host or cells: rat caudate synaptosomes
- condition-details: Table 4; % EC50 of release
- Protocol: Rat caudate (for DA release) or whole brain minus cerebellum and caudate (for NE and 5-HT release), was homogenized in ice-cold 10% sucrose containing 1 μM reserpine. Nomifensine (100 nM) and GBR12935 (100 nM) were added to the sucrose solution for [^3H]5-HT release experiments to block any potential [^3H]5-HT reuptake into NE and DA nerve terminals. […] In substrate reversal experiments, statistical significance was determined using the Student's t-test.
Structures can show the parent of a compound that is named as a salt.

| compound | DA Rel (%) |
| --- | --- |
| Cc1cccc(C2OCCNC2C)c1.Cc1cccc(C2OCCNC2C)c1.O=C(O)/C=C/C(=O)O (centres unmarked) [PAL 773] | 98 |
| Cc1ccc(C2OCCNC2C)cc1 (centres unmarked) [PAL 747, 3-Methyl-2-(4′-Tolyl)morpholine fumarate] | 91 |
| CC1NCCOC1c1ccc(Cl)cc1.CC1NCCOC1c1ccc(Cl)cc1.O=C(O)/C=C/C(=O)O (centres unmarked) [PAL 749] | 88 |
| COc1ccc(C2OCCNC2C)cc1.Cl (centres unmarked) [PAL 751] | 50 |
| CC1NCCOC1c1ccc(C#N)cc1.CC1NCCOC1c1ccc(C#N)cc1.O=C(O)/C=C/C(=O)O (centres unmarked) [PAL 772] | 0 |
| CC1NCCOC1c1cccc(C#N)c1.Cl (centres unmarked) [PAL 786] | 99 |
| CC1NCCOC1c1cccc(O)c1.Cl (centres unmarked) [PAL 780] | 97 |
| CC1NCCOC1c1ccc(F)cc1.CC1NCCOC1c1ccc(F)cc1.O=C(O)/C=C/C(=O)O (centres unmarked) [PAL 748] | 98 |
| CC1NCCOC1c1ccc(F)c(Cl)c1.Cl (centres unmarked) [PAL 821] | 94 |
| CC1NCCOC1c1ccc(Cl)c(Cl)c1.Cl (centres unmarked) [PAL 788] | 60 |
| COc1cccc(C2OCCNC2C)c1.COc1cccc(C2OCCNC2C)c1.O=C(O)/C=C/C(=O)O (centres unmarked) [PAL 823] | 96 |

###

- assay-target: NET (Rattus norvegicus, UniProt Q63380)
- Construct: the supernatants were retained on ice (synaptosomal preparation); from tissue; host or cells: rat whole brain minus cerebellum and caudate, synaptosomes
- Sequence (Q63380 1-617): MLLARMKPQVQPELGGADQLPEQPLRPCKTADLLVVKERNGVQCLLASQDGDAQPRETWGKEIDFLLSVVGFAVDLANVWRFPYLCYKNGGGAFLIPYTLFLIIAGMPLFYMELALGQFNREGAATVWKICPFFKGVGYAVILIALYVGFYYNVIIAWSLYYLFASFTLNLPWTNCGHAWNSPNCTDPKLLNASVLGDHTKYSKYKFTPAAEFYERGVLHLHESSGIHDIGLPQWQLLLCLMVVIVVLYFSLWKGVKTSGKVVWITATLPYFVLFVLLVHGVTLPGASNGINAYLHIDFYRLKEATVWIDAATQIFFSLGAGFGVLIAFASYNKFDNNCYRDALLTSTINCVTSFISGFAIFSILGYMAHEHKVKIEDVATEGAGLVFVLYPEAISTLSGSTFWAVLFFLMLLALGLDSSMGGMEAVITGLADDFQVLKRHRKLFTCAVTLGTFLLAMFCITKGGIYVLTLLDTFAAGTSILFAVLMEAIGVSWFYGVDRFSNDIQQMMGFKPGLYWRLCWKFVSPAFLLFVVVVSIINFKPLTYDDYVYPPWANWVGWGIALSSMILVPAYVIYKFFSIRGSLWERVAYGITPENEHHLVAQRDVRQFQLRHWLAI
- procedure-details: NE release assay (synaptosomes, [3H]MPP+)
- Type: biochemical
- condition-details: Release NE (EC50 nm), Table 3; rat brain synaptosomes

| compound | assay-target | endpoint-unit | EC50 |
| --- | --- | --- | --- |
| C[C@H]1NCCO[C@@H]1c1ccccc1 [PAL56, (+)-phenmetrazine, reference compound] | NET (Rattus norvegicus, UniProt Q63380) | nM | 37 |
| C[C@H]1NCCO[C@H]1c1ccccc1 [PAL60, reference compound] | NET (Rattus norvegicus, UniProt Q63380) | nM | 349 |
| C[C@@H]1NCCO[C@H]1c1ccccc1 [PAL57, reference compound] | NET (Rattus norvegicus, UniProt Q63380) | nM | 63 |
| C[C@H]1NCCOC1c1ccccc1 (stereo partly shown) [PAL55, reference compound] | NET (Rattus norvegicus, UniProt Q63380) | nM | 50 |
